- System: human Glucagon receptor (GCGR) (human, UniProt P47871)
- Assay: cell-based or functional assay
*1 amine or outer side, *2 acyl side, *3 side chain or, on linkers, in order; H or OH if unused. Bridges are numbered along the chain shown (N, C = ends). Where no end group is shown, it is not given here. [ ]: non-standard residue; d: D form. γGlu = O=C(O)[C@H](CCC(=O)[*:2])N[*:1]; Met(O2) = CS(=O)(=O)CC[C@H](N)C(=O)O; Nle = CCCC[C@H](N)C(=O)O; Aib = CC(C)(N)C(=O)O
Assign GCGR EC50 human (nM), cAMP activity assay to each entry below.
Give bare numbers, in nM.

{"Binder": "H[Aib]QGTFTSDKSKYLD[Aib]RAAKDFVEWL[Nle]DT-NH2 (lactam 20-24; not fully specified (residue 10); printed as HUQGTFTSDK(γEγEC16)SKYLDURAAK*DFVE*WL-Nle-DT-NH2) [TP838]", "Result": 0.675}

Go through the list and state GCGR EC50 human (nM), cAMP activity assay for each entry.
1. H[Aib]QGTFTSDKSKYLD[Aib]KAAQEFVQWL[Met(O2)]DTK(γGlu)-NH2 (lactam 17-21; not fully specified (residue 10); printed as HUQGTFTSDK(γEγEC16)SKYLDUK*AAQE*FVQWL2DTKγE-NH2) [TP848]
2. H[dS]QGTFTSDKSKYLDARAAKDFVEWLLDT-NH2 (lactam 20-24; not fully specified (residue 10); printed as HsQGTFTSDK(γEγEC16)SKYLDARAAK*DFVE*WLLDT-NH2) [TP707]
3. H[dS]QGTFTSDKSKYLDAKAAQEFVQWLLDT-NH2 (lactam 17-21; not fully specified (residue 10); printed as HsQGTFTSDK(γEγEC16)SKYLDAK*AAQE*FVQWLLDT-NH2) [TP710]

Result ::
0.079
0.1
0.06

Recorded values, source patent US20230285514A1.
